Listing: IC50 of selected molecules
# System: JAK2 (Homo sapiens, UniProt O60674)
# Construct: host or cells: baculovirus expression system
# Sequence (O60674 whole entry): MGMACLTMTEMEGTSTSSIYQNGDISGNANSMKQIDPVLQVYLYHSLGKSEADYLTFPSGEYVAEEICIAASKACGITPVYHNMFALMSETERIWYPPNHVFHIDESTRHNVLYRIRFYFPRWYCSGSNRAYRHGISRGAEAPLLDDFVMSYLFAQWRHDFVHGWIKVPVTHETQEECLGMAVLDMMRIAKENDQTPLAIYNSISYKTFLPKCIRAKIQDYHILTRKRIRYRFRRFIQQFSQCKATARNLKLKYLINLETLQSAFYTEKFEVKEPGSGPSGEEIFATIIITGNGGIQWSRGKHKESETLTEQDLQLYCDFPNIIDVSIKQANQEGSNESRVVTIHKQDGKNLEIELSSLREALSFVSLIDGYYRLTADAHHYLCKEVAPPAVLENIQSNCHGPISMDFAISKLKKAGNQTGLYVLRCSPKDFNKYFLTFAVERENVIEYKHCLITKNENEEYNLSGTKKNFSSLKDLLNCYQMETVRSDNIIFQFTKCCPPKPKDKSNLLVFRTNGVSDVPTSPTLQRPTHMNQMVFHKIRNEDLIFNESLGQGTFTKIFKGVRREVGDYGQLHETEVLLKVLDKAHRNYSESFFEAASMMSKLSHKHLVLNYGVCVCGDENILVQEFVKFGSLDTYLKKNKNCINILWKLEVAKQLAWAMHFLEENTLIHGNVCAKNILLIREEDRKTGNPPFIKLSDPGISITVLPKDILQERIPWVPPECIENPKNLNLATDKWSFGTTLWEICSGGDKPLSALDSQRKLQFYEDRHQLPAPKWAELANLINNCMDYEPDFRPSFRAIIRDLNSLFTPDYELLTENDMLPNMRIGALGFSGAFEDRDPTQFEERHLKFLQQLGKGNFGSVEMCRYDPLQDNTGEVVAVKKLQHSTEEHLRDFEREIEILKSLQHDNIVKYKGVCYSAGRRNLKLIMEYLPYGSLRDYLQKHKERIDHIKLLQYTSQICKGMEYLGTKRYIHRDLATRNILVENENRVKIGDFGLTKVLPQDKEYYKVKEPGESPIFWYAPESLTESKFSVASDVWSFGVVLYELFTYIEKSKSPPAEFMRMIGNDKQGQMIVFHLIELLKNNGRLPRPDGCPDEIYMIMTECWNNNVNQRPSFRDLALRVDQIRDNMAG
# Assay method text: Recombinant Human JAK2 Kinase Assay (TRF)
# Format: biochemical
# Experimental conditions: JAK2 kinase inhibition, 0.2 μM ATP; read-out: JAK2 Potency

Reference set (4 entries):
• COCCNc1cccc(-c2ccc3cnc(Nc4cccc(NC(C)=O)c4)nn23)c1 [Example 988] = < 100 nM
• CN1CCC(c2ccc(Nc3ncc4ccc(-c5cccc(S(=O)(=O)NCc6ccccc6)c5)n4n3)cc2)CC1 [Example 904] = < 100 nM
• COc1cc(C2CCNCC2)ccc1Nc1ncc2ccc(-c3ccc(C)cc3N(C)S(C)(=O)=O)n2n1 [Example 1281] = 100 to 1000 nM
• COc1cc(N2CCC(N3CCOCC3)CC2)ccc1Nc1ncc2ccc(-c3ccc(Cl)cc3OC)n2n1 [Example 486] = < 100 nM

Task item: Reported IC50 for Cn1cnc2ccc(Nc3ncc4ccc(-c5ccccc5NS(C)(=O)=O)n4n3)cc21 [Example 1310] : what is it?
Reply: < 100 nM

Task item: Suppose we examine the molecule CON=C1CCC(c2ccc(Nc3ncc4ccc(-c5cccc(S(=O)(=O)NC(C)(C)C)c5)n4n3)cc2)CC1 (stereo not drawn) [Example 571] ; what IC50 value has been reported?
Reply: < 100 nM

###

# System: ALK (Homo sapiens, UniProt Q9UM73)
# Construct: host or cells: baculovirus expression system
# Sequence (Q9UM73 19-1620): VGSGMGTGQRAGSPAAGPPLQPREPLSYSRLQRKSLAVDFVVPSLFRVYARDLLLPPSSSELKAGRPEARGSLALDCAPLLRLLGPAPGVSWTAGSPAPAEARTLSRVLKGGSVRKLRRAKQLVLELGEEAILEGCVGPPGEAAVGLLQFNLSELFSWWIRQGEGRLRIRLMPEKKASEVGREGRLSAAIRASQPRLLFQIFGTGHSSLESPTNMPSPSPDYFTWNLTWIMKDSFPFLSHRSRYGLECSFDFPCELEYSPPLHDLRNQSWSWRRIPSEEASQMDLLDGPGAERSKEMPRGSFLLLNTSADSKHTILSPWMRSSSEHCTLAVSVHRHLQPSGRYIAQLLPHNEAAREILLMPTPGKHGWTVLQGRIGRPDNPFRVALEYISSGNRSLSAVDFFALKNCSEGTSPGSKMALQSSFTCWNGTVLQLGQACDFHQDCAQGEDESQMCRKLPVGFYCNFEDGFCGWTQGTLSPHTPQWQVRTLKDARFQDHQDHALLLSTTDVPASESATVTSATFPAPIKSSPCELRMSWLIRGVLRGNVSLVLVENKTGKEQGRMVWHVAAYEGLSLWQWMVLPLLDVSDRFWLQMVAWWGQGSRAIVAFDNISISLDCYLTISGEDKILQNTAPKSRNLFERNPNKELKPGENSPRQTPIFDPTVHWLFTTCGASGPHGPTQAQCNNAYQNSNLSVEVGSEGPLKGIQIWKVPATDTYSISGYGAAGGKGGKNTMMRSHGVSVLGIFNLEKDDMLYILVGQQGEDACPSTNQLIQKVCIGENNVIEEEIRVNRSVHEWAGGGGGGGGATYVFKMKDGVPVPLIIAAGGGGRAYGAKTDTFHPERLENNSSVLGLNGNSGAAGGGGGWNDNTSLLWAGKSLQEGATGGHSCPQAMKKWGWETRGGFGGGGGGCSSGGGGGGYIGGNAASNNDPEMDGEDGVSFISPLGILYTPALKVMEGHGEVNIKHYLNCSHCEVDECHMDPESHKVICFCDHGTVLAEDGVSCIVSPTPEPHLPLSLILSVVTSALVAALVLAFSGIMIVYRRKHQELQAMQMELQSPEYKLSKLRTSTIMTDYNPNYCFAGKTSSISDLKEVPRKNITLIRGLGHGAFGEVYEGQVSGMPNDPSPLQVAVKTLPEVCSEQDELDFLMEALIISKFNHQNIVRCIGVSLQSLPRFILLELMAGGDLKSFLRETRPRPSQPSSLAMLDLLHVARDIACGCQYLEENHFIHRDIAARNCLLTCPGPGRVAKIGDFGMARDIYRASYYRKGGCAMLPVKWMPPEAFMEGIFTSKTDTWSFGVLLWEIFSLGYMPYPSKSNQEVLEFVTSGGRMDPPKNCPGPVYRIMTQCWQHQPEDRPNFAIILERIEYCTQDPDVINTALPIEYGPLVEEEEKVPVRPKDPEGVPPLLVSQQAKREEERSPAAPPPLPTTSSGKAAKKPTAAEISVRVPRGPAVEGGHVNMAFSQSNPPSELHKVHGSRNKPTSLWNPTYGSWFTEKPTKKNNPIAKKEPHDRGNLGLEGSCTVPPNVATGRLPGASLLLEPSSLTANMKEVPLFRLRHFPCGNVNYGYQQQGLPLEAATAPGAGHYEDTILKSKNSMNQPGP
# Assay method text: ALK Kinase Assay (ELISA/TRF, PLC-γ substrate)
# Assay type: biochemical
# Experimental conditions: ALK kinase inhibition, 1 μM ATP; read-out: ALK Potency
pIC50: −log10 of the molar value.
The reader will find reported pIC50 values listed item by item below.

Previously resolved entries follow.
- CN1CCN(c2ccc(Nc3ncc4ccc(-c5cccnc5Cl)n4n3)cc2)CC1 [Example 1036]: 6.00 to 7.00
- Cn1cnc2cc(Nc3ncc4ccc(-c5cccc(S(=O)(=O)NC(C)(C)C)c5)n4n3)ccc21 [Example 1332]: < 5.00
- O=S1(=O)CCN(Cc2ccc(-c3ccc4cnc(Nc5ccc(N6CCOCC6)cc5)nn34)cc2)CC1 [Example 1032]: 6.00 to 7.00

Next item in the queue.
Task item: Name the reported pIC50 value associated with the compound COc1ccc(-c2ccc3cnc(Nc4ccc5c(c4)N(C)CCC5)nn23)cn1 [Example 980]
Reply: < 5.00

###

The following molecules are shown together with reported pIC50 values.
# System: JAK2 (Homo sapiens, UniProt O60674)
# Construct: host or cells: baculovirus expression system
# Assay method text: Recombinant Human JAK2 Kinase Assay (TRF)
# Format: biochemical
# Experimental conditions: JAK2 kinase inhibition, 0.2 μM ATP; read-out: JAK2 Potency
pIC50: −log10 of the molar value.

- CC(C)(C)NS(=O)(=O)c1cccc(-c2ccc3cnc(Nc4ccc5cn[nH]c5c4)nn23)c1: > 7.00
- COc1ccccc1-c1ccc2cnc(Nc3ccc(N4CCN(C)CC4)nc3)nn12: > 7.00
- COc1cc(CN2CCN(C(C)=O)CC2)ccc1Nc1ncc2ccc(-c3ccccc3N(C)S(C)(=O)=O)n2n1: 6.00 to 7.00
- COc1cc(C2CCN(C(=O)C3CCN3)CC2)ccc1Nc1ncc2ccc(-c3ccccc3OC)n2n1 (racemic): 6.00 to 7.00
- CCN1CCOC(c2ccc(Nc3ncc4ccc(-c5cccc(S(=O)(=O)NC(C)(C)C)c5)n4n3)cc2)C1 (stereo not drawn): > 7.00

Task item: Endpoint output: pIC50 of `NC(=O)CN1CCC(c2ccc(Nc3ncc4ccc(-c5cccc(CO)c5)n4n3)cc2)CC1` . Value?
Reply: > 7.00

Task item: Please report the recorded pIC50 for `COc1cc(CN2CCN(C[C@@H](O)CO)CC2)ccc1Nc1ncc2ccc(-c3ccccc3N(C)S(C)(=O)=O)n2n1` .
Reply: 6.00 to 7.00
